Each record here notes measured MIC values.
# Tested on: Streptococcus agalactaciae CMX 508
# assay text: In vitro antibacterial activity, MIC by agar dilution
# Assay type: cell-based
# reported conditions: BHI agar, 35-37°C, 20-24 hours, unit assumed
Structures can show the parent of a compound that is named as a salt.
I only need the number, in µg/mL, no unit after it.

1) CCc1cc(C(=O)O)c(=O)n2ccc(N3CCNC(C)C3)cc12.Cl (stereo not drawn): 50
2) CCc1cc(C(=O)O)c(=O)n2ccc(N3CCN(C)CC3)cc12.Cl: 100
3) NC1CCN(c2nc3c(-c4ccc(F)cc4F)cc(C(=O)O)c(=O)n3cc2F)C1 (stereo not drawn): 0.39
4) CC(=O)N[C@H]1C[C@H](C)N(c2nc3c(-c4ccc(F)cc4F)cc(C(=O)O)c(=O)n3cc2F)C1: 0.78
5) CN1CCN(c2nc3c(-c4ccc(F)cc4F)cc(C(=O)O)c(=O)n3cc2F)CC1: 3.1

// switching to the query compound
-- ask Look up MIC values of C[C@H](N)C(=O)N[C@@H](C)C(=O)N[C@H]1C[C@H](C)N(c2nc3c(-c4ccc(F)cc4F)cc(C(=O)O)c(=O)n3cc2F)C1 [Example 173, hydrochloride] and report it.
-- reply 12.5

###

Each record here notes measured MIC values.
# System: Klebsiella pneumoniae ATCC 8045
# assay text: In vitro antibacterial activity, MIC by agar dilution
# Type: cell-based
# reported conditions: BHI agar, 35-37°C, 20-24 hours, unit assumed
Structures can show the parent of a compound that is named as a salt.
I only need the number, in µg/mL, no unit after it.

Worked cases, answers included:
1. NC1CCN(c2nc3c(C4CC4)cc(C(=O)O)c(=O)n3cc2F)C1 (centres unmarked) [Example 158]: 0.05
2. C[C@H](N)C(=O)NC1CCN(c2nc3c(-c4ccc(F)cc4F)cc(C(=O)O)c(=O)n3cc2F)C1 (some centres unmarked) [Example 167, hydrochloride]: 3.1
3. C[C@H](N)C(=O)N[C@@H](C)C(=O)N[C@H]1C[C@H](C)N(c2nc3c(-c4ccc(F)cc4F)cc(C(=O)O)c(=O)n3cc2F)C1 [Example 173, hydrochloride]: 3.1
4. NC1CCN(c2nc3c(-c4c(F)c(F)c(F)c(F)c4F)cc(C(=O)O)c(=O)n3cc2F)C1 (centres unmarked) [Example 172, hydrochloride salt]: 3.1
5. CCc1cc(C(=O)O)c(=O)n2ccc(N3CCC(N)C3)cc12.Cl (centres unmarked) [Example 62]: 3.1
6. CCC[C@H](N)C(=O)NC1CCN(c2nc3c(-c4ccc(F)cc4F)cc(C(=O)O)c(=O)n3cc2F)C1 (some centres unmarked) [Example 166, hydrochloride salt]: 1.56

-- ask # lookup: Klebsiella pneumoniae ATCC 8045 MIC values, key = CN1CCN(c2nc3c(C4CC4)cc(C(=O)O)c(=O)n3cc2F)CC1 [Example 163]
-- reply 0.1

-- ask # lookup: Klebsiella pneumoniae ATCC 8045 MIC values, key = O=C(O)c1cc(C2CC2)c2nc(N3CCOCC3)c(F)cn2c1=O [Example 165]
-- reply 0.39

-- ask # lookup: Klebsiella pneumoniae ATCC 8045 MIC values, key = O=C(O)c1cc(-c2ccc(F)cc2F)c2nc(N3CCC(O)C3)c(F)cn2c1=O (centres unmarked) [Example 170]
-- reply 0.05

-- ask # lookup: Klebsiella pneumoniae ATCC 8045 MIC values, key = CN1CCN(c2nc3c(-c4ccc(F)cc4)cc(C(=O)O)c(=O)n3cc2F)CC1 [Example 2]
-- reply 0.2

-- ask # lookup: Klebsiella pneumoniae ATCC 8045 MIC values, key = CCc1cc(C(=O)O)c(=O)n2ccc(N3CCNC(C)C3)cc12.Cl (centres unmarked) [Example 64]
-- reply 6.2

-- ask # lookup: Klebsiella pneumoniae ATCC 8045 MIC values, key = NC1CCN(c2nc3c(-c4ccc(F)cc4F)cc(C(=O)O)c(=O)n3cc2F)C1 (centres unmarked) [Example 161]
-- reply 0.01

###

# Tested on: Staphylococcus aureus ATCC 6538P
# assay text: In vitro antibacterial activity, MIC by agar dilution
# Format: cell-based
# reported conditions: BHI agar, 35-37°C, 20-24 hours, unit assumed
Structures can show the parent of a compound that is named as a salt.
measured quantity: log10 MIC values (log10 of the value in µg/mL)
Remember, log10 of MIC values, in µg/mL.

Worked cases, answers included:
1) CN1CCN(c2nc3c(-c4ccc(F)cc4)cc(C(=O)O)c(=O)n3cc2F)CC1 [Example 2]: -0.41
2) CN1CCN(c2nc3c(-c4ccc(F)cc4F)cc(C(=O)O)c(=O)n3cc2F)CC1: -0.70
3) O=C(O)c1cc(C2CC2)c2nc(N3CCOCC3)c(F)cn2c1=O: 0.79
4) C[C@H](N)C(=O)N[C@@H](C)C(=O)N[C@H]1C[C@H](C)N(c2nc3c(-c4ccc(F)cc4F)cc(C(=O)O)c(=O)n3cc2F)C1 [Example 173, hydrochloride]: 0.19

-- ask Look up log10 MIC values of CCc1cc(C(=O)O)c(=O)n2ccc(N3CCNC(C)C3)cc12.Cl (stereo not shown) and report it.
-- reply 1.40

-- ask Look up log10 MIC values of C[C@H](N)C(=O)NC1CCN(c2nc3c(-c4ccc(F)cc4F)cc(C(=O)O)c(=O)n3cc2F)C1 (stereo partly shown) [Example 167, hydrochloride] and report it.
-- reply -0.11

-- ask Look up log10 MIC values of O=C(O)c1cc(-c2ccc(F)cc2F)c2nc(N3CCC(O)C3)c(F)cn2c1=O (stereo not shown) and report it.
-- reply -1.30

-- ask Look up log10 MIC values of `CN1CCN(c2nc3c(C4CC4)cc(C(=O)O)c(=O)n3cc2F)CC1` and report it.
-- reply 0.19

-- ask Look up log10 MIC values of NC1CCN(c2nc3c(-c4c(F)c(F)c(F)c(F)c4F)cc(C(=O)O)c(=O)n3cc2F)C1 (stereo not shown) [Example 172, hydrochloride salt] and report it.
-- reply 1.70

-- ask Look up log10 MIC values of `CCc1cc(C(=O)O)c(=O)n2ccc(N3CCN(C)CC3)cc12.Cl` and report it.
-- reply 1.10

-- ask Look up log10 MIC values of CCC[C@H](N)C(=O)NC1CCN(c2nc3c(-c4ccc(F)cc4F)cc(C(=O)O)c(=O)n3cc2F)C1 (stereo partly shown) [Example 166, hydrochloride salt] and report it.
-- reply -0.41

-- ask Look up log10 MIC values of NC1CCN(c2nc3c(-c4ccc(F)cc4F)cc(C(=O)O)c(=O)n3cc2F)C1 (stereo not shown) and report it.
-- reply -1.30

-- ask Look up log10 MIC values of C[C@H](N)C(=O)N[C@@H](C)C(=O)NC1CCN(c2nc3c(-c4ccc(F)cc4F)cc(C(=O)O)c(=O)n3cc2F)C1 (stereo partly shown) [Example 168, hydrochloride] and report it.
-- reply -0.11

###

# Tested on: Streptococcus pyrogenes EES61
# assay text: In vitro antibacterial activity, MIC by agar dilution
# Assay type: cell-based
# reported conditions: BHI agar, 35-37°C, 20-24 hours, unit assumed
Counter-ions that a name gives are not always drawn.
measured quantity: MIC values (µg/mL)
I only need the number, in µg/mL, no unit after it.

Worked cases, answers included:
1. CCc1cc(C(=O)O)c(=O)n2ccc(N3CCC(N)C3)cc12.Cl (stereo not drawn): 25
2. C[C@H]1C[C@H](N)CN1c1nc2c(-c3ccc(F)cc3F)cc(C(=O)O)c(=O)n2cc1F [Example 171, hydrochloride]: 0.78
3. CN1CCN(c2nc3c(C4CC4)cc(C(=O)O)c(=O)n3cc2F)CC1: 12.5

-- ask Look up MIC values of O=C(O)c1cc(-c2ccc(F)cc2F)c2nc(N3CCC(O)C3)c(F)cn2c1=O (stereo not drawn) and report it.
-- reply 0.78

-- ask Look up MIC values of O=C(O)c1cn(C2CC2)c2cc(N3CCNCC3)c(F)cc2c1=O [Cntl, Ciprofloxacin, reference compound] and report it.
-- reply 0.39

-- ask Look up MIC values of `CCc1cc(C(=O)O)c(=O)n2ccc(N3CCN(C)CC3)cc12.Cl` and report it.
-- reply 100

###

Each record here notes measured MIC values.
# Tested on: Enterobacter aerogenes ATCC 13048
# assay text: In vitro antibacterial activity, MIC by agar dilution
# Assay type: cell-based
# reported conditions: BHI agar, 35-37°C, 20-24 hours, unit assumed
I only need the number, in µg/mL, no unit after it.

Worked cases, answers included:
1. O=C(O)c1cc(-c2ccc(F)cc2F)c2nc(N3CCC(O)C3)c(F)cn2c1=O (centres unmarked): 0.39
2. O=C(O)c1cn(C2CC2)c2cc(N3CCNCC3)c(F)cc2c1=O [Cntl, Ciprofloxacin, reference compound]: 0.05
3. CN1CCN(c2nc3c(C4CC4)cc(C(=O)O)c(=O)n3cc2F)CC1: 0.39

-- ask Look up MIC values of NC1CCN(c2nc3c(C4CC4)cc(C(=O)O)c(=O)n3cc2F)C1 (centres unmarked) and report it.
-- reply 0.1

-- ask Look up MIC values of CN1CCN(c2nc3c(-c4ccc(F)cc4)cc(C(=O)O)c(=O)n3cc2F)CC1 [Example 2] and report it.
-- reply 0.78

All figures here come from patent EP0527889B1.
